- System: A549
- TEST DESCRIPTION: NCI tumour cell line growth inhibition, 48 h
Calls of active or inactive are those of the source. Cut-off read from the data, not from the text of the source: active = GI50 up to about 1.1 µM and inactive = higher. Where a SMILES comes first, the peptide text is derived from it. [ ]: non-standard residue; d: D form. The star is where a group is joined. ξ: configuration not given here. NMeF = CN[C@@H](Cc1ccccc1)C(=O)O; NMeV = CN[C@H](C(=O)O)C(C)C; ξNMeN = CNC(CC(N)=O)C(=O)O; NMeA = CN[C@@H](C)C(=O)O; ξNMeV = CNC(C(=O)O)C(C)C; Boc = CC(C)(C)OC(=O)*
Quick reference for GI50 among some compounds

COMPOUND	SYSTEM UNDER TEST	TEST VALUE
O=S1(=O)OCCOS(=O)(=O)C1(Cl)Cl	A549	> 100 µM (inactive)
COc1cccc(C2c3cc4c(cc3OC(NNc3ccccc3)C2C)OCO4)c1O (stereo not given)	A549	3.65 µM (inactive)
CC1=CC(c2ccccc2)n2c(nc3cc4ccccc4cc32)N1 (stereo not given)	A549	> 100 µM (inactive)

Problem: Please give measured GI50 of the following entry: `CCN(CC)CCN(C(=O)c1ccc(F)cc1)c1ccccc1N`
Result: > 10 µM (inactive)

Problem: Please give measured GI50 of the following entry: `O=C(NNc1cn[nH]c(=O)n1)c1cccc2nc3ccccc3nc12`
Result: > 100 µM (inactive)

Problem: Output GI50 of `CCCCCCCCCC(=O)CC(=O)c1ccc(O)cc1O`
Result: 31.3 µM (inactive)

Problem: Return GI50 for the following compound: `C[Si](C)(C)C(CCCCSc1ccccc1)(Sc1ccccc1)Sc1ccccc1`
Result: > 100 µM (inactive)

Problem: Tell us which GI50 value is on record for O=C(O)c1cc(Cl)cc2c1NC1(N2)C(=O)Nc2ccccc21 (stereo not given)
Result: > 100 µM (inactive)

Problem: Read the entry `COc1ccc(CC(=O)NCCc2ccc(OC)c(OC)c2OC)cc1` and write its reported GI50.
Result: 30.1 µM (inactive)

Problem: For the compound COC(=O)[C@H](C)N(C)C(=O)C(CC(N)=O)N(C)C(=O)[C@H](Cc1ccccc1)N(C)C(=O)[C@@H]1CCCN1C(=O)[C@H](C(C)C)N(C)C(=O)C(C(C)C)N(C)C(=O)[C@@H](NC(=O)OC(C)(C)C)C(C)C (stereo not given in full) (Boc-V[ξNMeV][NMeV]P[NMeF][ξNMeN][NMeA]-OMe) , give its measured GI50 value.
Result: > 50 µM (inactive)
